# System: MS2 coat protein
# run.description: apparent KD of MS2 coat protein; designed switch direction (-1 OFF switch, 1 ON switch): -1; higher = weaker reporter binding
# assay.conditions: input ligand: microRNA oligo, concentration not stated
Would you mind telling me the reported apparent KD of MS2 coat protein of each entry?
State just the number; it will be interpreted in nM.

Return apparent KD of MS2 coat protein measured with MS2 coat protein given this sequence: UAAGGGUGCGUAGGAUAUCGCGGCCGAAUAAAGCGAGAAGGACGCCCGAAUGGGUCGUCCAACAUGAGGAUCACCCAUGUAAAC [Soerre] (Eterna round: R96, puzzle: Exclusion NG 1)
36.5

Then this sequence: CACCGUUAGUGAGGAUAUCUUACAUGAGGAUCACCCAUGUAAUAAAUGAGAAUUUCGGAUGUAUUAGAGAAGGCACAAAUCGGC [Ostricism 57 - Jieux - Exclusion NG 2] (Eterna round: R96, puzzle: Exclusion NG 2)
17.7

Please answer likewise for GUACUGAAGCAUAGCUUUAGUCGUACAUGAGGAUCACCCAUGUAGGAUAUGGUAGGCAUAGCUUACUAGAAGGAUAGAGUGAUC [Mat - Exclusion NG 3 - Mod of JL - D72] (Eterna round: R96, puzzle: Exclusion NG 3)
71.6

Please answer likewise for GUAAUUAAUGUAGGAUAUGCAAGGCGAACCUAAGCAGAAGGACAUGAGGAUCACCCAUGUAUUGCGGUCUGCGUUCUGAUCGCU [salish99_ExNG1_r4_010] (Eterna round: R96, puzzle: Exclusion NG 1)
8.25

Now the sequence CACCUGAAGACAGGAUAUCAUACAUGAGGAUCACCCAUGUAAUAAAUGAGAAUUUCGAAUGUAAUUGAGAAGGGUCAAUAAGGC [Ostricism 96 - Jieux - Exclusion NG 2] (Eterna round: R96, puzzle: Exclusion NG 2)
31.3

Follow-up item: ACAUGAGGAUCACCCAUGUCAGGUUGGUCCUCUCCGGCUGUUGAGGAUAUAGUCCGGUAUCCGCGCUAGAAGGUGAGGGCUGGC [Aenatbe mod 15] (Eterna round: R96, puzzle: Exclusion NG 3)
17.2

Same again, this time with ACGCAUUGCCAAAGGUAGUGCGUUACAUGAGGAUCACCCAUGUAGGAUAUGGUAGGCAAAGCUUACCAGAAGGACAUGAUAAUU [Mat - Exclusion NG 3 - Mod of JL - D6] (Eterna round: R96, puzzle: Exclusion NG 3)
44.8

Please answer likewise for AGAUCUAGGACAGGAUAUAUGGAUGUCUUCAUCGAAGAUGAAGACAUUACAUGAGGAUCACCCAUGUAGAAGGGUCCUAGAUCA [Omei Exc(NG) 2Av3] (Eterna round: R96, puzzle: Exclusion NG 2)
17.5

Now the sequence UUGAUUCAUUCCUCUAUAAACAUGAGGAUCACCCAUGUAAGUGAGGAUAUAGUUGGAGUUGUAUACUAGAAGGCACUUAGUUUU [JR_ExcNG3_Sub048] (Eterna round: R96, puzzle: Exclusion NG 3)
8.29

Record: GACUCAAUCCGAGGAUAUUGCCAGCGCUGCUAUCACAUGAGGAUCACCCAUGUAUCCUCGGCUUUCGAGAAGGCGGAUUGAGCG [Eternabot solution 35] (Eterna round: R96, puzzle: Exclusion NG 2)
46.8

Try the sequence AAGAUGCGGAUAGGAUAUGGAAAUUAAUAAAGACCAGAAGGAUUGGUCACACAACAUGAGGAUCACCCAUGUGUGUGUUGUGAA [AK ExNG1-5] (Eterna round: R96, puzzle: Exclusion NG 1)
10.6

Do the same for AAGAACGUACAAGGAUAUCUCCACCACAACGGCAGAGAAGGUGUACAUGAGGAUCACCCAUGUGACCGAAGGCCCUUAUGGGCC [Xeerergeza] (Eterna round: R96, puzzle: Exclusion NG 1) please
20.6

For CGAUAAAGCUGAGGAUAUGAGGAGAGAGAGAGAUCAGAAGGCAGACAUGAGGAUCACCCAUGUGAGUUCUCGAAAUUAAAUAUU [Prohibition 48 - Jieux - Exclusion NG 1] (Eterna round: R96, puzzle: Exclusion NG 1) then?
47

Thanks! And AAUAUACAUGUAGGAUAUCUGCACGAUUAGUGCAGAGAAGGACAUGAGGAUCACCCAUGUAAUUAAGAUCAAUUAUUAAAUAUU [ENG1/3-B1] (Eterna round: R96, puzzle: Exclusion NG 1) ?
46.9

Item: CAGUACUGAGGAUAUACAUGAGGAUCACCCAUGUGUUCCAGCUAGGAUACUAGCAAAAGUAGAAGGCAGUACUG [salish99_ex3_r3_095x] (Eterna round: R96, puzzle: Exclusion 3)
20.9

Follow-up item: AGCUGUGGCCGAGGAUAUCUAAAACCUCAAAACGAAAUAUAAUCGAACAUGAGGAUCACCCAUGUAGAGAAGGCGGUCUCAGCA [Eli eng2 - 031] (Eterna round: R96, puzzle: Exclusion NG 2)
214

Next sequence: AGAUCUAGGACAGGAUAUACCGAUGGCUUCAUCGAAGAUGAAGCCAUCACAUGAGGAUCACCCAUGUAGAAGGGUCCUAGAUCA [Omei Exc(NG) 2Av9] (Eterna round: R96, puzzle: Exclusion NG 2)
9.95

# repeat for GUCAGCUCGUCAGGAUAUACAUGAGGAUCACCCAUGUGGUCAAUAGCAGCUUCGGCUGCAAUAAUGUAGAAGGGACGAGCUGAC [ENG2/8-E] (Eterna round: R96, puzzle: Exclusion NG 2)
301
